biological target: HCV NS5B (Hepatitis C virus genotype 1b, UniProt Q9WMX2); construct: The protein was expressed with an 18 amino acid C-terminal truncation to enhance the solubility; test: HCV NS5B RdRp enzyme assay (preincubation protocol); conditions: HCV NS5B RdRp genotype 1b
Sequence (Q9WMX2 2420-2992): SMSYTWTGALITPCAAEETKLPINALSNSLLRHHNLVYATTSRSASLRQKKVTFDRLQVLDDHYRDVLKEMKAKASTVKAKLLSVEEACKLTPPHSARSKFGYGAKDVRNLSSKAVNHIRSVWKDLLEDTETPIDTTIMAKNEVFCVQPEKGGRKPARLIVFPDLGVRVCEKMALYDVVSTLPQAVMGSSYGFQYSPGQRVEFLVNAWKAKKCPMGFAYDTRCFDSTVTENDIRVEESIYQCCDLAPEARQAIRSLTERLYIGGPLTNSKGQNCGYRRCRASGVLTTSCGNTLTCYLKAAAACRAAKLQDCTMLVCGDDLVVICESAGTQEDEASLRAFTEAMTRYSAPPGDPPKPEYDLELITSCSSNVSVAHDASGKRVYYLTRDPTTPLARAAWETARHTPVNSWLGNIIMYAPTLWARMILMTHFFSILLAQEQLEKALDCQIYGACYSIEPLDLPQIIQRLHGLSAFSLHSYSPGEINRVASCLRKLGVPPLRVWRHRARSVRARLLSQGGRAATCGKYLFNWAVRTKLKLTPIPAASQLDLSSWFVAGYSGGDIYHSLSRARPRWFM
pIC50: −log10 of the molar value.

Compound	pIC50
Nc1nnc(C2=Cc3ccccc3-c3c(C4CCCCC4)c4ccc(C(=O)O)cc4n3C2)o1	< 6.30
O=C(O)c1ccc2c(C3CCCCC3)c3n(c2c1)CC(c1n[nH]c(CC2CCOCC2)n1)=Cc1ccccc1-3	6.30 to 9.00
COc1ccc2c(c1)CC(c1ncc(CCC(=O)N3CCOCC3)o1)Cn1c-2c(C2CCCCC2)c2ccc(C(=O)O)cc21 (single isomer, unassigned) [Example 52]	6.30 to 9.00
O=C(O)c1ccc2c(C3CCCCC3)c3n(c2c1)CC(c1nnc(CC2CCOCC2)o1)=Cc1ccccc1-3	6.30 to 9.00
CN(C)S(=O)(=O)NC(=O)c1ccc2c(C3CCCCC3)c3n(c2c1)CC(c1ncc(CCC(=O)N2CCOCC2)o1)Cc1ccccc1-3 (stereo not shown)	6.30 to 9.00
COc1ccc2c(c1)CC(c1ncc(CCC(=O)N3CCOCC3)o1)Cn1c-2c(C2CCCCC2)c2ccc(C(=O)NS(=O)(=O)N(C)C)cc21 (single isomer, unassigned)	6.30 to 9.00
O=C(CN1CCOCC1)Nc1nnc(C2=Cc3ccccc3-c3c(C4CCCCC4)c4ccc(C(=O)O)cc4n3C2)o1	6.30 to 9.00
CCn1nnc(C2=Cc3ccccc3-c3c(C4CCCCC4)c4ccc(C(=O)NS(=O)(=O)N(C)C)cc4n3C2)n1	6.30 to 9.00
O=C(O)c1ccc2c(C3CCCCC3)c3n(c2c1)CC(c1n[nH]c(=O)o1)=Cc1ccccc1-3	6.30 to 9.00
COC(=O)c1ccc2c(C3CCCCC3)c3n(c2c1)CC(c1nc(CS(C)(=O)=O)no1)=Cc1ccccc1-3	< 6.30
COC(=O)c1ccc2c(C3CCCCC3)c3n(c2c1)CC(c1ncc(CCC(=O)N2CCOCC2)o1)=Cc1cc(OC)ccc1-3	< 6.30
COc1ccc2c(c1)CC(c1ncc(CCC(=O)N3CCOCC3)o1)Cn1c-2c(C2CCCCC2)c2ccc(C(=O)O)cc21 (racemic) [Example 50]	6.30 to 9.00
Cc1noc(C2=Cc3ccccc3-c3c(C4CCCCC4)c4ccc(C(=O)O)cc4n3C2)n1	6.30 to 9.00
COc1ccc2c(c1)CC(c1ncco1)Cn1c-2c(C2CCCCC2)c2ccc(C(=O)NS(=O)(=O)N(C)C)cc21 (stereo not shown)	6.30 to 9.00
O=C(O)c1ccc2c(C3CCCCC3)c3n(c2c1)CC(c1nnn(CC2CC2)n1)=Cc1ccccc1-3	< 6.30
Cc1noc(C2=Cc3ccccc3-c3c(C4CCCCC4)c4ccc(C(=O)NS(=O)(=O)N(C)C)cc4n3C2)n1	6.30 to 9.00

---

molecular target: HCV NS5B (Hepatitis C virus genotype 1b); construct: The protein was expressed with an 18 amino acid C-terminal truncation to enhance the solubility; made in house; host or cells: E. coli BL21(DE3); assay: HCV NS5B RdRp enzyme assay (preincubation protocol); format: biochemical; settings: HCV NS5B RdRp genotype 1b
pIC50: −log10 of the molar value.
Below, each entry is listed with its recorded pIC50.
Outcome measure: pIC50

Compound	Test result
COC(=O)c1ccc2c(C3CCCCC3)c3n(c2c1)CC(c1nc(CC2CCOCC2)n(C)n1)=Cc1ccccc1-3	< 6.30
COC(=O)c1ccc2c(C3CCCCC3)c3n(c2c1)CC(c1ncc(CCC(=O)N2CCOCC2)o1)Cc1cc(OC)ccc1-3 (stereo not shown)	< 6.30
COC(=O)c1ccc2c(C3CCCCC3)c3n(c2c1)CC(c1ncco1)=Cc1cc(OC)ccc1-3	< 6.30
CN(C)S(=O)(=O)NC(=O)c1ccc2c(C3CCCCC3)c3n(c2c1)CC(c1ncc(CCC(=O)N2CCOCC2)o1)=Cc1ccccc1-3	6.30 to 9.00
O=C(O)c1ccc2c(C3CCCCC3)c3n(c2c1)CC(c1nnnn1CC1CCOCC1)=Cc1ccccc1-3	6.30 to 9.00
COC(=O)c1ccc2c(C3CCCCC3)c3n(c2c1)CC(c1ncc(CCC(=O)N2CCOCC2)o1)=Cc1ccccc1-3	< 6.30
O=C(O)c1ccc2c(C3CCCCC3)c3n(c2c1)C=C(c1nnnn1CC1CCOCC1)Cc1ccccc1-3	< 6.30
